- TARGET OR TEST SYSTEM: T1, human TGFβ1 (human, UniProt P01137 279-390)
- T1 construct: also called TGFβ1 homodimer
- T1 sequence (P01137 279-390 limits assumed): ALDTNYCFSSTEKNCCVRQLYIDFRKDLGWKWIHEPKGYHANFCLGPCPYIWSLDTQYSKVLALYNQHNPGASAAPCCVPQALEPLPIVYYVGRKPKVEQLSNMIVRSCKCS
- PROCEDURE SUMMARY: Biacore off-rate vs wt GC1008, 50 nM
Below, each entry is listed with its recorded kd var/kd wt.
Answer as a number with no unit attached.

BINDER	MEASUREMENT TYPE	RESULT VALUE
S30Y (antibody, V domains shown, GC1008 IgG4 variant) VH: QVQLVQSGAEVKKPGSSVKVSCKASGYTFYSNVISWVRQAPGQGLEWMGGVIPIVDIANYAQRFKGRVTITADESTSTTYMELSSLRSEDTAVYYCASTLGLVLDAMDYWGQGTLVTVSS VL: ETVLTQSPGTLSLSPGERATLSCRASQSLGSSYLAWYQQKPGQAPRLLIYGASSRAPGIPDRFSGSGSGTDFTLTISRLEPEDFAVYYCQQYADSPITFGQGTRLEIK	kd var/kd wt	1

Okay, next one:
Quick note, kd var/kd wt for E74A (antibody, V domains shown, GC1008 IgG4 variant) VH: QVQLVQSGAEVKKPGSSVKVSCKASGYTFSSNVISWVRQAPGQGLEWMGGVIPIVDIANYAQRFKGRVTITADASTSTTYMELSSLRSEDTAVYYCASTLGLVLDAMDYWGQGTLVTVSS VL: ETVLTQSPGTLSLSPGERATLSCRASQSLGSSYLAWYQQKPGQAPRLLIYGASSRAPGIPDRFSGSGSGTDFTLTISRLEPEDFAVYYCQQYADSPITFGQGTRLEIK landed at 1
